Test system: NCI-H23 lung
protocolSummary: NCI tumour cell line growth inhibition, 48 h
I'd appreciate it if you could supply TGI values for the items below.

In: Name the reported TGI value associated with the molecule `CN1COc2c(n(C)c(=O)[nH]c2=O)C1`
Out: > 100 µM

In: Also `[N-]=[N+]=C1C(=O)C2CC3CC(C2)CC1C3` , if possible.
Out: > 100 µM

In: `COc1ccc(C(=O)N2c3ccccc3Sc3ccccc32)c(OC)c1` , same question.
Out: > 100 µM

In: Can you handle `CCN(CC)Cc1sc2nc3ccccc3n2c1-c1ccc(OC)cc1` next?
Out: > 100 µM

In: Can you check `CC(=O)c1c(C(F)(F)F)n([O-])c2ccc(C)cc2[n+]1=O` next?
Out: 11.2 µM

In: What do you get for `O=C(O)/C(Cl)=C(\Cl)C(=O)Nc1ccc(Cl)c(Cl)c1Cl` ?
Out: 33.2 µM

In: Field entry: COc1ccc2c(c1)CCN1CCc3cc(OC)c(OC)cc3CC21 (stereo not given)
Out: > 100 µM

In: Item: COC12c3ccccc3-c3ccccc3C1[C@H]1C(=O)OC(=O)[C@H]12 (stereo not given in full)
Out: > 10 µM

In: Would you mind doing C=C1CCC2[C@@H](CCC3[C@]2(C)CCC[C@]3(C)C(=O)OC)[C@@H]1CC=O (stereo not given in full) as well?
Out: 66.5 µM

In: `COC(CN1C=C(Sc2ccccc2)CC1)OC` ?
Out: 69.7 µM

In: Okay, and `CCOC1=C2N=C(Cc3ccccc3F)N=C2C(=O)c2ccccc21` ?
Out: > 100 µM

In: Also O=C(Cc1ccccc1)NN1C(=O)C(Cl)C1c1ccccc1O (stereo not given) , if possible.
Out: > 100 µM

In: Then what about the molecule `CN(C)CCCN1c2ccccc2CCc2ccc([N+](=O)[O-])cc21` ?
Out: > 100 µM

In: // repeat for CSCCC(NC(=O)Cc1ccc(C(=O)c2ccccc2)cc1)C(=O)O (stereo not given) and report
Out: > 100 µM

In: Same read-out for `CCC(c1c[nH]c2ccc(Br)cc12)c1c[nH]c2ccc(Br)cc12` ?
Out: 11 µM
